This section presents binders with their documented IC50, RGA 1 values.
Target: T1, human IL-11 (human, UniProt P20809 22-199)
T1 sequence: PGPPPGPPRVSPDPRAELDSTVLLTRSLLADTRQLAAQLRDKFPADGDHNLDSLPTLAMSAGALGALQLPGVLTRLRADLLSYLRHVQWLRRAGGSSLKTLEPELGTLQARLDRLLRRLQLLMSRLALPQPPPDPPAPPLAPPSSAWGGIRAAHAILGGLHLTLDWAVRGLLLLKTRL
Assay: cell-based or functional assay

{"binder": "TPP-31303 (antibody, IgG4, V domains shown) VH: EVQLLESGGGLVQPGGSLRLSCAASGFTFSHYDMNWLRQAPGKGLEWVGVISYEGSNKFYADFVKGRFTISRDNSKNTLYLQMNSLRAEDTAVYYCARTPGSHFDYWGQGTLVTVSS VL: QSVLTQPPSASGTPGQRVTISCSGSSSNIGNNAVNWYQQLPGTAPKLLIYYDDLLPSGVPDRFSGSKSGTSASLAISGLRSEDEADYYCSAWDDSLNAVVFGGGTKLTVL", "IC50, RGA 1 (nM)": 9.08}
{"binder": "TPP-31300 (antibody, IgG4, V domains shown) VH: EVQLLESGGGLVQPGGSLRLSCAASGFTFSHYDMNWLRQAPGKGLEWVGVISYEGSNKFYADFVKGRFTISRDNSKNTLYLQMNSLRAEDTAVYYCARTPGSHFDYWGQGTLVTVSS VL: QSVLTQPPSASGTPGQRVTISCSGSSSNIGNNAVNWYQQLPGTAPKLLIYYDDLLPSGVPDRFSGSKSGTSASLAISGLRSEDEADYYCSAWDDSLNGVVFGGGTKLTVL", "IC50, RGA 1 (nM)": 1.09}

Where do these numbers come from? They come from patent US20240317847A1.
